- targetUnderTest: AKT2 (Homo sapiens, UniProt P31751)
- Sequence (P31751 whole entry): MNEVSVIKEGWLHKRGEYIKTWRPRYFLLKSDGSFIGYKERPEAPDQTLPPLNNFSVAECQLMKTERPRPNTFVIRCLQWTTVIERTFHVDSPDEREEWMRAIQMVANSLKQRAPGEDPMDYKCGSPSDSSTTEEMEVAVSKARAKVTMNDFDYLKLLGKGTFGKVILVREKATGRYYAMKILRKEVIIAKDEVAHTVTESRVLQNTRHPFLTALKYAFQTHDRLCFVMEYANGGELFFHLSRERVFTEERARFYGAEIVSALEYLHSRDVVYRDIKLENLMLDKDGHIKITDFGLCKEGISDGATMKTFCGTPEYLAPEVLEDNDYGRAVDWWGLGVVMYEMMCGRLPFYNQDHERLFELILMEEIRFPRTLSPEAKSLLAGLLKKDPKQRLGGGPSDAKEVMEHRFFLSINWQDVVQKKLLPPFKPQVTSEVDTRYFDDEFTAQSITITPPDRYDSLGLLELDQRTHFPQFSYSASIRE
- assayNotes: Live cell AKT2 target engagement by NanoBRET competitive probe displacement
- studyConditions: HEK293 cells transfected with kinase-NanoLuciferase fusion, 2 h at 37° C.
pIC50: −log10 of the molar value.
endpoint: pIC50

Reference set (3 entries):
C=CC(=O)N1CCC(N[C@@H]2c3ccc(-n4c(-c5cccnc5N)nc5ccc(-n6ccc(F)n6)nc54)cc3CC2F)C[C@@H]1C (single isomer, unassigned) [Example 270]    7.68
C=CC(=O)N1CCC(N[C@@H]2c3ccc(-n4c(-c5cccnc5N)nc5ccc(-n6cccn6)nc54)cc3CC2F)C[C@H]1C (single isomer, unassigned) [Example 144]    5.93
C=CC(=O)N1CCC(N[C@H]2CCc3cc(-n4c(-c5cccnc5N)nc5ccc(-n6cccn6)nc54)ccc32)c2ccccc21 (single isomer, unassigned) [Example 127]    7.43

P. C=CC(=O)Nc1cccc(C)c1C(=O)N[C@H]1CCc2cc(-n3c(-c4cccnc4N)nc4ccc(-n5cccn5)nc43)ccc21
Q. C=CC(=O)N1C[C@H]2COC[C@@H](C1)C2N[C@H]1CCc2cc(-n3c(-c4cccnc4N)nc4ccc(-n5cccn5)nc43)ccc21 (single isomer, unassigned) [Example 73]
Between P and Q , whose measured pIC50 reads higher? Answer with the label corresponding to your selection.
Q
(Q: 7.06, P: 6.42)

P. C=CC(=O)NCc1ccccc1C(=O)N[C@H]1CCc2cc(-n3c(-c4cccnc4N)nc4ccc(-n5cccn5)nc43)ccc21
Q. C=CC(=O)N1CCC(c2cn([C@H]3CCc4cc(-n5c(-c6cccnc6N)nc6ccc(-n7cccn7)nc65)ccc43)nn2)CC1
Lower value of pIC50 belongs to which: P or Q ? Answer with the label corresponding to your selection.
Q

I. C=CC(=O)N1CCC(N[C@@H]2c3ccc(-n4c(-c5cccnc5N)nc5ccc(-n6ccc(C#N)n6)nc54)cc3CC2F)CC1 (single isomer, unassigned) [Example 311]
II. C=CC(=O)N1CCC(N[C@@H]2c3ccc(-n4c(-c5cccnc5N)nc5ccc(-n6ccc(F)n6)nc54)cc3CC2F)C[C@H]1C (single isomer, unassigned) [Example 277]
Lower value of pIC50 belongs to which: I or II ? Answer with the label corresponding to your selection.
I

1. C=CC(=O)N1CCC(N[C@H]2CCc3cc(-n4c(-c5cccnc5N)nc5ccc(-n6ccc(C7(F)CC7)n6)nc54)ccc32)CC1
2. C=C(C)C(=O)Nc1ccccc1C(=O)N[C@H]1CCc2cc(-n3c(-c4cccnc4N)nc4ccc(-n5cccn5)nc43)ccc21
3. C=CC(=O)N1CCC(N[C@@H]2c3ccc(-n4c(-c5cccnc5N)nc5ccc(-n6cccn6)nc54)cc3CC2(F)F)CC1
Arrange by pIC50, high to low. I'd appreciate it if you listed the labels in the requested order.
1, 2, 3

---

- targetUnderTest: AKT1 E17K (Homo sapiens, UniProt P31749, E17K)
- Sequence (P31749 whole entry E17K): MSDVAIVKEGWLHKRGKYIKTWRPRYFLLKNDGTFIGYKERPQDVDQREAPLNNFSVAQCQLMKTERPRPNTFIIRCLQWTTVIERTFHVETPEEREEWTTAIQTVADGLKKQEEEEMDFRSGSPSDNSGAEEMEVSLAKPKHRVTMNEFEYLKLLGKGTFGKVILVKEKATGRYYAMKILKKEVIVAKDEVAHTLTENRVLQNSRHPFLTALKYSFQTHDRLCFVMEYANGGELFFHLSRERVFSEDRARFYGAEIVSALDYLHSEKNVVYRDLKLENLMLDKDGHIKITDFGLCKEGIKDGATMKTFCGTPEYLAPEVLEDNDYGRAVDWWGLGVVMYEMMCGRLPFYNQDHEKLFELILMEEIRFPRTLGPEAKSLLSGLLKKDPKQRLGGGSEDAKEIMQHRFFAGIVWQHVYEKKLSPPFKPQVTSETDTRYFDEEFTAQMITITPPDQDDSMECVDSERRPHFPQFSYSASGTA
- assayNotes: Live cell AKT1 E17K target engagement by NanoBRET competitive probe displacement
- studyConditions: HEK293 cells transfected with kinase-NanoLuciferase fusion, 2 h at 37° C.
pIC50: −log10 of the molar value.
endpoint: pIC50

Reference set (3 entries):
C=CC(=O)N1CCN(NC2CCc3cc(-n4c(-c5cccnc5N)nc5ccc(-n6ccc(F)n6)nc54)ccc32)CC1 (single isomer, unassigned) [Example 201]    7.99
Nc1ncccc1-c1nc2ccc(-n3cccn3)nc2n1-c1ccc2c(c1)CC[C@@H]2NC1CCN(C(=O)[C@@H]2CO2)CC1    7.37
C=CC(=O)N1CCC(N[C@H]2CCc3cc(-n4c(-c5cccnc5N)nc5ccc(-n6cccn6)nc54)ccc32)C(C)C1 (single isomer, unassigned) [Example 99]    7.05

P. C=CC(=O)N1CCC(N(C)[C@H]2CCc3cc(-n4c(-c5cccnc5N)nc5ccc(-n6cccn6)nc54)ccc32)CC1
Q. C=CC(=O)N1CCC(N[C@H]2CCc3cc(-n4c(-c5cccnc5N)nc5ccc(-n6nccn6)nc54)ccc32)C[C@H]1C (single isomer, unassigned) [Example 261]
R. C=CC(=O)N1CCC(N[C@H]2CC(F)c3cc(-n4c(-c5cccnc5N)nc5ccc(-n6cccn6)nc54)ccc32)CC1 (single isomer, unassigned) [Example 234]
rank_up(items): orders items by reported pIC50 in ascending numerical order. I'd appreciate it if you listed the labels in the requested order.
P, Q, R
(P: 7.06, Q: 7.36, R: 7.92)
